Source of measurements: patent US20220153796A1

# measurementTarget: HLA-B*44 (human)
# runDescription: UV peptide exchange ELISA
Exercise: state measured peptide exchange yield for each of the binders provided.

Exercise: Find the recorded peptide exchange yield belonging to TEFPIIKMY and report it.
Key: 20 to 50%

Exercise: Okay, and DELFSIALY ?
Key: > 75%

Exercise: Ok, now AETPIQNVI
Key: 50 to 75%

Exercise: // next record SEPALLHSW
Key: 50 to 75%

Exercise: Next up: FEYDFLLQRI
Key: > 75%

Exercise: Can you handle SDMVRFHLF next?
Key: 20 to 50%

Exercise: Again, but for NEVLTYIKF
Key: > 75%

Exercise: Also AEVPTGVII , if possible.
Key: 50 to 75%
